study system: hGIPR (Homo sapiens)
Sequence (P48546 22-466): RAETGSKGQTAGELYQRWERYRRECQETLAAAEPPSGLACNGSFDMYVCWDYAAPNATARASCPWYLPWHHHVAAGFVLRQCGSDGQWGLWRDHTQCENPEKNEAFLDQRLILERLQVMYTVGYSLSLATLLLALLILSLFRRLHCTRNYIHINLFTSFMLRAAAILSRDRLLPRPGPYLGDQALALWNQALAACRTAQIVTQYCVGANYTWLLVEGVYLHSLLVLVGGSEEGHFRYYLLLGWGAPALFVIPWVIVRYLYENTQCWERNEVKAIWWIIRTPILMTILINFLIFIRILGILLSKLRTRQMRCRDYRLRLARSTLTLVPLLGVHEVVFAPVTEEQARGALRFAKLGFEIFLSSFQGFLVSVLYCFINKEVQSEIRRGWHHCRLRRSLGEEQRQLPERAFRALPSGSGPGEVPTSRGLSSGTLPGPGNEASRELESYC
procedure summary: Functional cAMP activity in the presence of 1% HSA
Format: cell-based
condition notes: read-out: cAMP Rel EC50, hGIPR
Starred links: 1 amine or outer side, 2 acyl side, 3 side chain; linkers in the order of their positions; H or OH if unused. Non-standard residues stand in square brackets, D forms with d. Groups on a side chain read outwards from the residue. *: point of attachment. C18 diacid = O=C(O)CCCCCCCCCCCCCCCCC(=O)*; αMePhe(2-F) = C[C@](N)(Cc1ccccc1F)C(=O)O; γGlu = O=C(O)[C@H](CCC(=O)[*:2])N[*:1]; αMe4Pal = C[C@](N)(Cc1ccncc1)C(=O)O; αMeY = C[C@](N)(Cc1ccc(O)cc1)C(=O)O; 4Pal = N[C@@H](Cc1ccncc1)C(=O)O; αMeL = CC(C)C[C@](C)(N)C(=O)O; αMeS = C[C@](N)(CO)C(=O)O; Orn = NCCC[C@H](N)C(=O)O; AEEA = NCCOCCOCC(=O)O; Aib = CC(C)(N)C(=O)O
test readout: EC50 (nM)
Form entry: value (nM) — number only.

H-Y[Aib]QGTFTSD[4Pal]SQ[αMeL]LDKK([AEEA-γGlu-C18 diacid])AQ[αMe4Pal]AFIE[αMe4Pal]LIEGGPSSGAPPPSGS-NH2 [Example 948] = 22.9

// EC50 lookup, substance = H-Y[Aib]QGT[αMePhe(2-F)]TSD[4Pal][αMeS]I[αMeL]LD[Orn]K([γGlu-γGlu-C18 diacid])AQ[Aib][Orn]FI[dE][αMeY]LIEGGPSSGEPPPSEG-NH2 [Example 480] , result: 0.722

EC50 in this record for H-Y[Aib]QGTFTSDFS[Orn][αMeL]LDKK([AEEA-AEEA-γGlu-C18 diacid])AQ[Aib]AFIEYLLE[dA]GPSSGEPPPSGQ-NH2 [Example 157] : 22.2
